target: EGFR L858R/C797S (Homo sapiens, UniProt P00533, C797S/L858R); test: Biochemical EGFR kinase assay (Lance Ultra TR-FRET), double mutant L858R/C797S; conditions: Km ATP; read-out: IC50 L858R/C797S (nM) Km ATP
Sequence (P00533 25-1210 C797S/L858R): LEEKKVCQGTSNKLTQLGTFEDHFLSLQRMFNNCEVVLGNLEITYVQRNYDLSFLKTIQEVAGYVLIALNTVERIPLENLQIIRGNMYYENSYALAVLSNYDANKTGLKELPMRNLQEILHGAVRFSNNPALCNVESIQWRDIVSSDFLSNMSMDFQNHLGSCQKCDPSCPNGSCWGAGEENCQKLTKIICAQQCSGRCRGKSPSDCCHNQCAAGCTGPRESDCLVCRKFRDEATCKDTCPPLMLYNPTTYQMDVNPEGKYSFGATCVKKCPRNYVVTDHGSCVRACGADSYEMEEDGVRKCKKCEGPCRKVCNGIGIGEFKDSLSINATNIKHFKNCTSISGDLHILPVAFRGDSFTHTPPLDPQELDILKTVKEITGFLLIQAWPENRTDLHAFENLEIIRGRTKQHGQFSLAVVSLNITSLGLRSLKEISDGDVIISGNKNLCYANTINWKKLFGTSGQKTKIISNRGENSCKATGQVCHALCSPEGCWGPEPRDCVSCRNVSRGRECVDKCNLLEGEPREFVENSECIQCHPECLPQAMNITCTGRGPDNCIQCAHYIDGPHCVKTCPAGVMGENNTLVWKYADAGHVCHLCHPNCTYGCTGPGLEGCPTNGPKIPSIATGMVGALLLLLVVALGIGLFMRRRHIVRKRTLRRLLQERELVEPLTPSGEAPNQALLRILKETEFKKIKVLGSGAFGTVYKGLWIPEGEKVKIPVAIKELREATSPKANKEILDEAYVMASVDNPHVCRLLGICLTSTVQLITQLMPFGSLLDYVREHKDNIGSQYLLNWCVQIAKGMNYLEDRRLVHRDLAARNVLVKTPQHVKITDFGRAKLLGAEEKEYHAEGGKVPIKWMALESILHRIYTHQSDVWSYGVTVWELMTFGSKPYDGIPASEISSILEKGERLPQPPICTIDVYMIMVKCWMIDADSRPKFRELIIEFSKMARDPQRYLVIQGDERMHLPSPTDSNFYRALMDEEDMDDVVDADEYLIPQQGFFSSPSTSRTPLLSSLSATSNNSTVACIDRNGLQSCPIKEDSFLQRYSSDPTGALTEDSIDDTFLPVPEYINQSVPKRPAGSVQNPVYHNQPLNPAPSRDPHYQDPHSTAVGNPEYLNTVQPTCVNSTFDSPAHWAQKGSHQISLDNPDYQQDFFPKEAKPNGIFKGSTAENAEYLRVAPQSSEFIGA
Property Measured: IC50 (nM)
Answer with a number only, understood to be in nM.

C[C@]1(O)CC[C@@H](Nc2cc(Nc3ccnc(-c4cnn(CC(F)(F)C(F)F)c4)n3)ncc2-c2ccn(C(F)F)n2)CC1 has a reported IC50 of 15.5

Given item CC1(O)CCC(Oc2cc(Nc3ccnc(-c4cnn(S(=O)(=O)C5CC5)c4)n3)ncc2-c2cnn(C(F)F)c2)CC1 (stereo not shown) , the value recorded as its IC50 is 2.9

Reported IC50 for Cc1nn(S(=O)(=O)N(C)C)cc1-c1nccc(Nc2cc(N[C@H]3CC[C@@](C)(O)CC3)c(-c3ccn(C(F)F)n3)cn2)n1 was 5.4

Kindly note the recorded IC50 for CN(C)CCCn1ccc(-c2cnc(Nc3ccnc(-c4cnn(S(=O)(=O)C5CC5)c4)n3)cc2NCC2(CO)COC2)n1 , which is 0.6

So for CC1(O)CCC(Oc2cc(Nc3ccnc(-c4cnn(S(=O)(=O)C5CC5)c4)n3)ncc2-c2ccn(C(F)F)n2)CC1 (stereo not shown) , the logged IC50 turned out to be 6.3

Documented IC50 of COCn1ccc(-c2cnc(Nc3ccnc(-c4cnn(S(=O)(=O)C5CC5)c4)n3)cc2N[C@H]2CC[C@@](C)(O)CC2)n1 : 0.1

Form: molecule = C[C@]1(O)CC[C@@H](Nc2cc(Nc3ccnc(Nc4ccnn4CC(F)F)n3)ncc2-c2ccn(C(F)F)n2)CC1 ; IC50 = 139

====

target: EGFR wildtype (WT) (Homo sapiens); experiment: Biochemical EGFR kinase assay (Lance Ultra TR-FRET), wildtype; details: Km ATP; read-out: IC50 WT, Km ATP
Sequence (P00533 25-1210): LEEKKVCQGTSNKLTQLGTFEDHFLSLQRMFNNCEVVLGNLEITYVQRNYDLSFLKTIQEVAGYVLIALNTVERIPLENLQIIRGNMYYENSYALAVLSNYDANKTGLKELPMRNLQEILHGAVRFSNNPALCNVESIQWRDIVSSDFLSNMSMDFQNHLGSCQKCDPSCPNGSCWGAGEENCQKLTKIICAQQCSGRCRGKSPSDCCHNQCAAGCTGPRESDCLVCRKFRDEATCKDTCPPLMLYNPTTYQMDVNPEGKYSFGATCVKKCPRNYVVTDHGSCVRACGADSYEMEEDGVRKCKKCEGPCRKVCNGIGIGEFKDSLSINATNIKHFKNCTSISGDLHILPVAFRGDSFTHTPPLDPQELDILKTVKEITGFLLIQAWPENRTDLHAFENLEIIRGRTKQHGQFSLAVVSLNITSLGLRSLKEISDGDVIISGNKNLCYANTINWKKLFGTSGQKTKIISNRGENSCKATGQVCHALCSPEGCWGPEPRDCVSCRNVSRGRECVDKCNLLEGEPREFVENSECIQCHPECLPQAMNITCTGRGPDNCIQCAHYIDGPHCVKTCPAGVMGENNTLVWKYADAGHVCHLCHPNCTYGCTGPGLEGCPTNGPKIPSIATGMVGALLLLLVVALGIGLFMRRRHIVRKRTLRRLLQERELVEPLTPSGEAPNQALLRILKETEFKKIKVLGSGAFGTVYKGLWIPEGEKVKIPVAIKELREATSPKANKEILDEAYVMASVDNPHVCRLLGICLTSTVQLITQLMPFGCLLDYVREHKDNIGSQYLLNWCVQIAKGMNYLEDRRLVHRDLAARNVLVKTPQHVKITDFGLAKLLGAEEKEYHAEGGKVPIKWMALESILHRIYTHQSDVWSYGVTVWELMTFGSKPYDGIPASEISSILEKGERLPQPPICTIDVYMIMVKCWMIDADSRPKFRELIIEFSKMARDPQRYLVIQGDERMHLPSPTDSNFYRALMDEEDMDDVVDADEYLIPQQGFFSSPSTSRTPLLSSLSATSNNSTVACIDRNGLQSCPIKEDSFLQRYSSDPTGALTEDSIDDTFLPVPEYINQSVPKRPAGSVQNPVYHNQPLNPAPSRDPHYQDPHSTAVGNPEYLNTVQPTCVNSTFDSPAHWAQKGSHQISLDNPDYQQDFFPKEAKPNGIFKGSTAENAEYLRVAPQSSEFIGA
Please respond with reported pIC50 for every item in the list.
On this scale, pIC50 is minus log10 of a concentration expressed in M (mol/L).

Just so you know, measured pIC50 for C[C@]1(O)CC[C@@H](Nc2cc(Nc3ccnc(-c4cnn(S(=O)(=O)C5CC5)c4)n3)nnc2-c2ccn(C(F)F)n2)CC1 [Example 372] came out at 6.97

Sample C[C@]1(O)CC[C@@H](Nc2cc(Nc3ccnc(-c4cnn(CC(F)(F)F)c4)n3)ncc2-c2ccn(CC(F)F)n2)CC1 [Example 344] ; pIC50 observed: 7.23

Noted for C[C@]1(O)CC[C@@H](Nc2cc(Nc3ccnc(-c4cnn(S(=O)(=O)C5CC5)c4)n3)nnc2-c2ccn(CC(F)(F)F)n2)CC1 [Example 374] : its pIC50 reads 5.98

pIC50 for Cn1nc(-c2cnc(Nc3ccnc(-c4cnn(CC(F)F)c4)c3)nc2N[C@H]2CC[C@@](C)(O)CC2)cc1C(F)(F)F [Example 361] is 6.16

According to the records, this molecule CC(C)(O)[C@H]1CC[C@@H](Nc2nc(Nc3ccnc(-c4cnn(S(=O)(=O)C5CC5)c4)c3)ncc2-c2ccn(C(F)F)n2)CC1 [Example 365] displays pIC50 of 6.51

pIC50 in this record for Cc1nn(CC(F)(F)F)cc1-c1nccc(Nc2cc(N[C@H]3CC[C@@](C)(O)CC3)c(-c3ccn(CC(F)F)n3)cn2)n1 [Example 335] : 7.01

Summary for this molecule, C[C@]1(O)CC[C@@H](Nc2cc(Nc3ccnc(-c4cnn(CC(F)F)c4)n3)ncc2-c2ccn(C(F)(F)F)n2)CC1 [Example 340] : pIC50 is 6.76

Please fill in: pIC50 reported for CC(C)Nc1nc(Nc2ccnc(-c3cnn(S(=O)(=O)C4CC4)c3)c2)ncc1-c1ccn(C(F)F)n1 [Example 363] = 5.37

Form: molecule = Cn1nc(-c2cnc(Nc3ccnc(-c4cnn(S(=O)(=O)C5CC5)c4)c3)nc2N[C@H]2CC[C@@H](F)CC2)cc1C(F)(F)F [Example 371] ; pIC50 = 5.70

Record summary for C[C@]1(O)CC[C@@H](Nc2cc(Nc3ccnc(N4CCC[C@@H](O)C4)n3)ncc2-c2ccn(C(F)F)n2)CC1 [Example 352] : reported pIC50 = 6.34

Form field pIC50, entry C[C@]1(O)CC[C@@H](Nc2nc(Nc3ccnc(-c4cnn(S(=O)(=O)C5CC5)c4)c3)ncc2-c2ccn(CCC(F)(F)F)n2)CC1 [Example 359] : 6.68

Record summary for Cc1nn(CC(F)(F)F)cc1-c1nccc(Nc2cc(N[C@H]3CC[C@@H](CCO)CC3)c(-c3ccn(CC(F)F)n3)cn2)n1 [Example 337] : reported pIC50 = 8.05

Please fill in: pIC50 reported for Cc1nn(CC(F)(F)F)cc1-c1nccc(Nc2cc(N[C@H]3CC[C@@](C)(O)CC3)c(-c3ccn(C(F)(F)F)n3)cn2)n1 [Example 341] = 7.32

Reference source: patent US12258327B2
